Data provenance is the MegaScale stability set (Tsuboyama et al. 2023).

Consider the following variants; for each one, report its folding stability dG.
B1: EEHEE_rd3_0130 (parent)
chain: TKIIVNGKTFTAPTEEEAQKIAEKLAKKAGLTVHKKNGTFELK

# Variants of: B1
# assay overview: folding stability dG (cDNA display proteolysis); higher = more stable
# condition label: PBS, room temperature
The answer is to be given in kcal/mol; state only the numeric part.

Item `H34S` has what recorded folding stability dG?
0.682

`E16M` ?
0.821

`G30H` ?
0.531

`T1W` ?
2.99

`K27Y` ?
0.616

`E16W` ?
0.933

`T32E` ?
0.222

`V33C` ?
1.13

`I21S` ?
-0.174

`E41T` ?
-0.004

`G30T` ?
0.204

`L25R` ?
-0.578

`K8I` ?
0.962

`K2M` ?
0.746

`E17T` ?
0.526

`G38R` ?
-0.474

`L31S` ?
-0.591

`P13N` ?
0.67

`K8E` ?
0.053

`G38W` ?
-0.047

`I4S` ?
0.124

`L31I` ?
-0.35

`K36R` ?
0.78

`K43F` ?
1.13

`K27D` ?
0.266

`F40E` ?
0.251

`L31F` ?
0.713

`E41F` ?
1.45

`K43Q` ?
0.615

`H34M` ?
0.601

`A26E` ?
-0.437

`I4K` ?
0.465

`E41R` ?
-0.631

`E16L` ?
0.722

`N37S` ?
-0.174

`K27S` ?
0.587

`A26L` ?
0.094

`E41C` ?
1.19

`N37F` ?
-0.371

`K35V` ?
0.732

`A12T` ?
0.083

`E16A` ?
0.911

`Q19M` ?
0.872

`T9F` ?
0.699

`A18W` ?
-0.4

`G30D` ?
0.07

`I3V` ?
0.523

`E16P` ?
0.061

`E17F` ?
0.623

`E41L` ?
0.903

`N6F` ?
1.61

`E16V` ?
0.573

`L31T` ?
-0.366

`K20A` ?
0.82

`A22G` ?
-0.83

`I3D` ?
-0.633

`T14M` ?
-0.226

`G30S` ?
0.137

`K20Y` ?
0.745

`E16Y` ?
0.864

`A26S` ?
0.1

`E17I` ?
1.33

`N37R` ?
-0.324

`I4Q` ?
0.068

`A26M` ?
-0.151

`A26T` ?
-0.552

`T39V` ?
1.39

`T1K` ?
0.145

`K2W` ?
0.519

`E23Q` ?
0.752

`T9A` ?
0.394

`K36W` ?
0.712

`K35D` ?
-0.099

`F40K` ?
-0.039

`T9L` ?
0.562

`T1P` ?
0.553

`I21E` ?
-0.19

`E17Q` ?
0.916

`K20E` ?
0.663

`T14F` ?
-0.544

`N6Q` ?
0.329

`E15C` ?
1.07

`I4F` ?
0.575

`E23K` ?
0.602

`T39C` ?
1.17

`F40S` ?
0.04

`E16Q` ?
0.827

`G38F` ?
0.05

`I3S` ?
-0.742

`I21Y` ?
0.645

`E23D` ?
0.78
